- tgt: intrinsic factor (IF) (Homo sapiens, UniProt P27352)
- Sequence (P27352 19-417, species assumed): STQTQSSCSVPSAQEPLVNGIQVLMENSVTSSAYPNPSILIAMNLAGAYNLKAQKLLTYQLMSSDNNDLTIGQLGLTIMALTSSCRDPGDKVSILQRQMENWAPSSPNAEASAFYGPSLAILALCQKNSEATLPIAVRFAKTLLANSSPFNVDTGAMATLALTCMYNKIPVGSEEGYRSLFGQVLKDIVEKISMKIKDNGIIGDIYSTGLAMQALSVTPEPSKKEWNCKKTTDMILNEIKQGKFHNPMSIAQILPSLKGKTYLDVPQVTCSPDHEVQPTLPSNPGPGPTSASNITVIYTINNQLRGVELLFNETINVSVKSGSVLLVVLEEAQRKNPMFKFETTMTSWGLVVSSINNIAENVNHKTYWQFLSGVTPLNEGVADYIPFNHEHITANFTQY
- experimental_protocol: Relative intrinsic factor (IF) affinity of eVB12 analogues and complexes
- Assay type: binding
- settings: percentage of the affinity of the eVB12 derivative relative to native, unmodified VB12
reported_metric: IF Affinity (%)
Dear colleague, please return just the value in %, with no unit written.

Kindly note the recorded IF Affinity for GCSF-acylhydrazidyl-eVB12 (conjugate, UniProt P09919 31-207, looked up, hydrazide vitamin B12 conjugate, EDAC-mediated conjugate of hydrazido-eVB12 with carboxyl groups of GCSF (section 1.11)) Granulocyte …: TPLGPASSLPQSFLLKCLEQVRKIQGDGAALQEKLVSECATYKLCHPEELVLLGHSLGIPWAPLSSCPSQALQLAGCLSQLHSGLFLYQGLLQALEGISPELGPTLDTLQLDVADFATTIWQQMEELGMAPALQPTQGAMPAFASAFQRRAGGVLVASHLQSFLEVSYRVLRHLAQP , which is 10
